# Measurement notes: Aqueous solubility
# Format: physicochemical
# Stated conditions: buffer pH 2.2, 24 h shaking, 2.5% DMSO
Consider the following compounds and their measured Solubility at pH value 2.2 readings.

{"Compound": "O=C(O)[C@H]1C[C@@H]1c1ccc(N[C@@H]2CCc3c(-c4c(Cl)cccc4Cl)ccc(F)c32)cn1 [Example 24]", "Solubility at pH value 2.2": ">122 μg/mL"}
{"Compound": "Cc1cc(OCC2(O)CCS(=O)(=O)CC2)cc(C)c1-c1ccc(F)c2c1CC[C@H]2Nc1ccc([C@H]2C[C@@H]2C(=O)O)nc1 [Example 38]", "Solubility at pH value 2.2": ">154 μg/mL"}
{"Compound": "Cc1cc(C(N)=O)cc(C)c1-c1ccc(F)c2c1CC[C@H]2Nc1ccc([C@H]2C[C@@H]2C(=O)O)nc1 [Example 11]", "Solubility at pH value 2.2": ">120 μg/mL"}
{"Compound": "Cc1cc(-c2nnn(C)n2)cc(C)c1-c1ccc(F)c2c1CC[C@H]2Oc1ccc([C@H]2C[C@@H]2C(=O)O)cc1 [Example 45 in WO 2013/178575, reference compound]", "Solubility at pH value 2.2": "< 1 μg/mL"}
{"Compound": "Cc1cc(-c2ccn(C)c(=O)n2)cc(C)c1-c1ccc(F)c2c1CC[C@H]2Nc1ccc([C@H]2C[C@@H]2C(=O)O)nc1 [Example 18]", "Solubility at pH value 2.2": ">130 μg/mL"}

* * *

Consider the following molecules and their measured pIC50 readings.
# Study system: cytochrome P450 2C9-isoenzyme (Homo sapiens (Human), UniProt P11712)
# Sequence (P11712 whole entry): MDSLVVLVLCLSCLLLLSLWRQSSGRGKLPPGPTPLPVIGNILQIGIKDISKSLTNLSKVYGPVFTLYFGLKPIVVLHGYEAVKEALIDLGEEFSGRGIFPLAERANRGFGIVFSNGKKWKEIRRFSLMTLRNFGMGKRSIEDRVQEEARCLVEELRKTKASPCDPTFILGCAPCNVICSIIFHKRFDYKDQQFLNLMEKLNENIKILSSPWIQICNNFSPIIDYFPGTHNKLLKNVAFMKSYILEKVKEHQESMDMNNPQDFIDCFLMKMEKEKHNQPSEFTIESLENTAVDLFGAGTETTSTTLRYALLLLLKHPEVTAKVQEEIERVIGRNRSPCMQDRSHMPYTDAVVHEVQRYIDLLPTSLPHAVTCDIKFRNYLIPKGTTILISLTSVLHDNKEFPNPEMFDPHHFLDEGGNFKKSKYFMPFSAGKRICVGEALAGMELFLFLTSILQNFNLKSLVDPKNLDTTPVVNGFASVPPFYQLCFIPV
# Measurement notes: Inhibition of CYP-2C9 (diclofenac hydroxylation, human liver microsomes)
# Format: in vitro ADME
# Stated conditions: diclofenac 10 μM, 37° C.
pIC50: −log10 of the molar value.
Recorded endpoint: pIC50

{"Structure smiles string": "Cc1cc(OCCC(C)(C)O)cc(C)c1-c1cccc2c1CC[C@H]2Nc1ccc([C@H]2C[C@@H]2C(=O)O)nc1", "Recorded measurement": "< 4.30"}
{"Structure smiles string": "Cc1cc(OCCCS(C)(=O)=O)cc(C)c1-c1ccc(F)c2c1CC[C@H]2Nc1ccc([C@H]2C[C@@H]2C(=O)O)nc1", "Recorded measurement": "< 4.30"}
{"Structure smiles string": "Cc1cc(O[C@@H]2COC[C@H]2O)cc(C)c1-c1ccc(F)c2c1CC[C@H]2Nc1ccc([C@H]2C[C@@H]2C(=O)O)nc1", "Recorded measurement": "< 4.30"}

Numbers sourced from patent US10125101B2.
